As shown below, each of these compounds has a reported IC50 value.
system-under-test: Disintegrin and metalloproteinase domain-containing protein 17 (Homo sapiens)
test-summary: Inhibitory activity against Tumor necrosis factor alpha-converting enzyme (TACE) in blood.
Assay type: tissue-based
Supply the numeric figure in nM, leaving out any unit text.

Example results:
compound="CNC(=O)[C@@H](NC(=O)C(CC(C)C)C(C(=O)NO)N(Cc1ccccc1)S(=O)(=O)c1cccc2cccnc12)C(C)(C)C (single isomer, unassigned)" quantitative_readout=85
compound=CNC(=O)[C@@H](NC(=O)[C@H](CC(C)C)[C@@H](C(=O)NO)N1CCOCC1)C(C)(C)C quantitative_readout=3.4
compound=CNC(=O)[C@@H](NC(=O)[C@H](CC(C)C)[C@H](NS(=O)(=O)c1cccs1)C(=O)NO)C(C)(C)C quantitative_readout=1.5

Look at this compound and give its reported IC50. CNC(=O)[C@@H](NC(=O)[C@H](CC(C)C)[C@H](NS(=O)(=O)c1cccc2cnccc12)C(=O)NO)C(C)(C)C
3.1

# get_value(readout='IC50', item= CNC(=O)[C@@H](NC(=O)[C@H](CC(C)C)[C@H](NC(=O)c1cccnc1)C(=O)NO)C(C)(C)C )
22

What value of measured IC50 is listed for CNC(=O)[C@@H](NC(=O)[C@H](CCCOCc1ccccc1)[C@H](OCc1ccc2nc(C)nc(O)c2c1)C(=O)NO)C(C)(C)C ?
12

Entry CNC(=O)[C@@H](NC(=O)C(CC(C)C)C(NC(C)=O)C(=O)NO)C(C)(C)C (single isomer, unassigned) has what IC50?
13

---

Readings of log10(IC50) for the listed molecules
system-under-test: Disintegrin and metalloproteinase domain-containing protein 17 (Homo sapiens)
test-summary: Inhibition of TNF(tumor necrosis factor) in human blood
Format: functional
Base-10 log of IC50, unit µM.

molecule=CNC(=O)[C@@H](NC(=O)[C@H](CC(C)C)[C@H](NS(=O)(=O)c1ccc2ncccc2c1)C(=O)NO)C(C)(C)C measure_name=log10(IC50) quantitative_readout=-0.36
molecule="CNC(=O)[C@@H](NC(=O)C(CC(C)C)C(NS(=O)(=O)c1cc(Cl)cc(Cl)c1)C(=O)NO)C(C)(C)C (single isomer, unassigned)" measure_name=log10(IC50) quantitative_readout=1.05

Field request: log10(IC50) | item: CNC(=O)[C@@H](NC(=O)[C@H](CC(C)C)[C@H](NS(=O)(=O)c1cccc2ccccc12)C(=O)NO)C(C)(C)C
0.49

Please report the recorded log10(IC50) for CNC(=O)[C@@H](NC(=O)[C@H](CC(C)C)[C@H](OCc1ccc2nc(C)nc(O)c2c1)C(=O)NO)C(C)(C)C .
0.38

Record request: log10(IC50) value, item CNC(=O)[C@@H](NC(=O)C(CC(C)C)C(NS(=O)(=O)c1ccc(Br)cc1)C(=O)NO)C(C)(C)C (single isomer, unassigned)
0.64

---

system-under-test: Disintegrin and metalloproteinase domain-containing protein 17 (Homo sapiens, UniProt P78536)
Sequence (P78536 whole entry, the tested form may be a part): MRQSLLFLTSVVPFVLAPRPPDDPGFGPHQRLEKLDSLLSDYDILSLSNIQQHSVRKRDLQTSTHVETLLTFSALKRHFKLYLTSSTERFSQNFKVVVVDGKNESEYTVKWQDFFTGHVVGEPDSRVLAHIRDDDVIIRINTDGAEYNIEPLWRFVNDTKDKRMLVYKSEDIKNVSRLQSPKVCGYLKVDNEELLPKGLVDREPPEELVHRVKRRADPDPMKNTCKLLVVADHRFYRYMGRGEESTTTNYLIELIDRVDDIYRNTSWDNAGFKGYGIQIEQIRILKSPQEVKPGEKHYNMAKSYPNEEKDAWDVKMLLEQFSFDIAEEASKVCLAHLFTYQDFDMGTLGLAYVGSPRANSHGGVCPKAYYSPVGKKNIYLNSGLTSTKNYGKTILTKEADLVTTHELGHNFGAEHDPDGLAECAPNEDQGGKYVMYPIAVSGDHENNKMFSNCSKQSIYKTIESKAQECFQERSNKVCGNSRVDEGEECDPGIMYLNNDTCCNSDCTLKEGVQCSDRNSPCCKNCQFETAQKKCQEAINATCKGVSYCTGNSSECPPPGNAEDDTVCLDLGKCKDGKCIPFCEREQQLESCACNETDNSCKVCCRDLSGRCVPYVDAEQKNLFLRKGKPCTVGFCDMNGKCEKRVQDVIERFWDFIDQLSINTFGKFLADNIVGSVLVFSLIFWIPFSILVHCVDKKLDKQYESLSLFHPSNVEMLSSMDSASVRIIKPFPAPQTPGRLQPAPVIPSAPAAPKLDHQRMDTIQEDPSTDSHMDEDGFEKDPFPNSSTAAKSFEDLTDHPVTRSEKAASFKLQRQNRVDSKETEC
test-summary: Inhibitory activity against Tumor necrosis factor alpha-converting enzyme (TACE) in blood.
Assay type: tissue-based
compounds and their reported pIC50
Expect pIC50 as a plain number equal to -log10 of the molar concentration.

Known pIC50 results, listed for orientation:
compound=CCCN([C@H](C(=O)NO)[C@@H](CC(C)C)C(=O)N[C@H](C(=O)NC)C(C)(C)C)S(=O)(=O)c1cccc2cccnc12 quantitative_readout=8.00
compound=CNC(=O)[C@@H](NC(=O)[C@H](CC(C)C)[C@H](NCCCSC)C(=O)NO)C(C)(C)C quantitative_readout=8.89
compound="C=CCC(C(=O)NO)C(CC(C)C)C(=O)N[C@@H](Cc1ccccc1)C(=O)NC (single isomer, unassigned)" quantitative_readout=9.70
compound="CNC(=O)[C@@H](NC(=O)C(CC(C)C)C(OCc1cc2c(=O)[nH]c(C)nc2cc1Br)C(=O)NO)C(C)(C)C (single isomer, unassigned)" quantitative_readout=9.48
compound=CNC(=O)[C@@H](NC(=O)[C@H](CC(C)C)[C@H](OCc1ccc2nc(C)nc(O)c2c1)C(=O)NO)C(C)(C)C quantitative_readout=9.37

I'd like to know its pIC50. The compound in question is CNC(=O)[C@@H](NC(=O)[C@H](CC(C)C)[C@H](NS(=O)(=O)CCc1ccncc1)C(=O)NO)C(C)(C)C
8.89

Given the compound CNC(=O)[C@@H](NC(=O)[C@H](CC(C)C)[C@H](OC)C(=O)NO)C(C)(C)C , what is its reported pIC50?
8.82

---

system-under-test: Disintegrin and metalloproteinase domain-containing protein 17 (Homo sapiens, UniProt P78536)
test-summary: Inhibitory activity against Tumor necrosis factor alpha-converting enzyme (TACE) in blood.
Type: tissue-based
pIC50: −log10 of the molar value.
So basically: pIC50 at 9 or higher? That is 1.0. Lower than 9? That is 0.0.

molecule=CNC(=O)[C@@H](NC(=O)[C@H](CC(C)C)[C@@H](C(=O)NO)N1CCCC1)C(C)(C)C label=0.0

Quick check: does CNC(=O)[C@@H](NC(=O)[C@H](CC(C)C)[C@H](NS(=O)(=O)c1c(C(C)C)cc(C(C)C)cc1C(C)C)C(=O)NO)C(C)(C)C have pIC50 greater than or equal to 9?
0.0

# check: pIC50 of CNC(=O)[C@@H](NC(=O)C(CC(C)C)C(NC(=O)c1ccccc1)C(=O)NO)C(C)(C)C (single isomer, unassigned) is greater than or equal to 9
0.0

Check if pIC50 >= 9 (inclusive). Item: CNC(=O)[C@@H](NC(=O)C(CC(C)C)C(NS(=O)(=O)c1ccc(F)cc1Cl)C(=O)NO)C(C)(C)C (single isomer, unassigned)
0.0

Does pIC50 meet or surpass 9 for CNC(=O)[C@@H](NC(=O)[C@H](CC(C)C)[C@H](NS(=O)(=O)c1cccc2cccnc12)C(=O)NO)C(C)(C)C ?
0.0

Is reported pIC50 greater than or equal to 9 here: CNC(=O)[C@@H](NC(=O)[C@H](CC(C)C)[C@H](OCc1cccc2ccccc12)C(=O)NO)C(C)(C)C
1.0

Check the entry CNC(=O)[C@@H](NC(=O)[C@H](CC(C)C)[C@H](Sc1cc(Cl)cc(Cl)c1)C(=O)NO)C(C)(C)C : does pIC50 equal or exceed 9?
1.0

Given CNC(=O)[C@@H](NC(=O)[C@H](CC(C)C)[C@H](NS(=O)(=O)c1ccc2c(c1)CC(=O)N2)C(=O)NO)C(C)(C)C , state whether its pIC50 is at least 9.
0.0

Dear colleague, could you confirm whether CNC(=O)[C@@H](NC(=O)[C@H](CC(C)C)[C@H](NS(=O)(=O)c1ccc(C(=O)O)cc1)C(=O)NO)C(C)(C)C has pIC50 at or above 9?
0.0

Reported pIC50 reaches at least 9 for CNC(=O)[C@@H](NC(=O)[C@H](CC(C)C)[C@H](NS(C)(=O)=O)C(=O)NO)C(C)(C)C ?
0.0

Evaluate CNC(=O)[C@@H](NC(=O)C(CC(C)C)C(NS(=O)(=O)c1ccccc1C#N)C(=O)NO)C(C)(C)C (single isomer, unassigned) : pIC50 at minimum 9?
0.0

Given the entry CNC(=O)[C@@H](NC(=O)[C@H](CC(C)C)[C@H](NS(=O)(=O)c1cccnc1)C(=O)NO)C(C)(C)C , answer whether its pIC50 meets or surpasses 9.
0.0

Is the recorded value of pIC50 equal to or greater than 9 for this molecule? CNC(=O)[C@@H](NC(=O)[C@@H](CC(=O)NO)CC(C)C)C(C)(C)C
0.0

Please tell me: is the molecule CNC(=O)[C@@H](NC(=O)C(CC(C)C)C(NCc1ccccc1)C(=O)NO)C(C)(C)C (single isomer, unassigned) at or over 9 in terms of pIC50?
0.0

Can CNC(=O)[C@@H](NC(=O)[C@H](CC(C)C)[C@H](OCc1cccc2cccnc12)C(=O)NO)C(C)(C)C be said to have pIC50 at or above 9?
1.0

Does pIC50 meet or surpass 9 for CNC(=O)[C@@H](NC(=O)[C@H](CC(C)C)[C@@H](C(=O)NO)N(C)S(=O)(=O)c1cccc2cccnc12)C(C)(C)C ?
0.0

Threshold query (pIC50 >= 9) on CNC(=O)[C@@H](NC(=O)[C@H](CC(C)C)[C@H](NC(=O)c1ccc2ccccc2c1)C(=O)NO)C(C)(C)C
0.0

---

# IC50 values compiled below
system-under-test: Disintegrin and metalloproteinase domain-containing protein 17 (Homo sapiens)
test-summary: Inhibition of TNF(tumor necrosis factor) in human blood
Format: functional
Just the number please, in µM, no unit attached.

Would you please look over these solved cases?
compound=CNC(=O)[C@@H](NC(=O)[C@H](CC(C)C)[C@H](NC(=O)c1cccc2cccnc12)C(=O)NO)C(C)(C)C system_under_test="Disintegrin and metalloproteinase domain-containing protein 17 (Homo sapiens)" measure_name=IC50 quantitative_readout=8
compound=CCS[C@H](C(=O)NO)[C@@H](CC(C)C)C(=O)N[C@H](C(=O)NC)C(C)(C)C system_under_test="Disintegrin and metalloproteinase domain-containing protein 17 (Homo sapiens)" measure_name=IC50 quantitative_readout=5.6
compound=CNC(=O)[C@@H](NC(=O)[C@H](CC(C)C)[C@H](NS(=O)(=O)c1ccc2ccccc2c1)C(=O)NO)C(C)(C)C system_under_test="Disintegrin and metalloproteinase domain-containing protein 17 (Homo sapiens)" measure_name=IC50 quantitative_readout=1.2

Consider the additional compound presented here.
Suppose we examine the compound C=CCC(C(=O)NO)C(CC(C)C)C(=O)N[C@@H](Cc1ccccc1)C(=O)NC (single isomer, unassigned) ; what IC50 value has been reported?
2.3
